system: SYK kinase (Homo sapiens)
Listing: IC50 of selected compounds

These recorded examples may help you get a feel for the data.
[[record]]
compound = "CC(=O)N1CCN(c2ccc(Nc3nc(C4CC4)nc4cn[nH]c34)cn2)CC1"
endpoint_name = "IC50"
readout_value = "0.01 to 0.1 µM"

[[record]]
compound = "CC(=O)N1CCN(c2ccc(Nc3nc(C(C)C)nc4cn[nH]c34)cc2)CC1"
endpoint_name = "IC50"
readout_value = "0.1 to 1 µM"

[[record]]
compound = "CN1CCC(n2cc(Nc3nc(-c4nccs4)nc4cn[nH]c34)cn2)CC1"
endpoint_name = "IC50"
readout_value = "0.01 to 0.1 µM"

[[record]]
compound = "FCCn1cc(Nc2nc(-c3ccoc3)nc3cn[nH]c23)cn1"
endpoint_name = "IC50"
readout_value = "0.01 to 0.1 µM"

[[record]]
compound = "CN1C(=O)COc2ccc(Nc3nc(-c4ccoc4)nc4cn[nH]c34)cc21"
endpoint_name = "IC50"
readout_value = "0.01 to 0.1 µM"


-- ask Consider the compound shown here: CC(C)(C)N1CCN(c2ccc(Nc3nc(-c4ccc5cn[nH]c5c4)nc4cn[nH]c34)cc2)CC1 What is its recorded IC50?
-- reply < 0.01 µM

-- ask Consider the compound shown here: CC(=O)N1CCC(n2cc(Nc3nc(-c4cccc(NS(C)(=O)=O)c4)nc4cn[nH]c34)cn2)CC1 What is its recorded IC50?
-- reply 0.1 to 1 µM

-- ask Consider the compound shown here: COCCn1cc(Nc2nc(-c3ccoc3)nc3cn[nH]c23)cn1 What is its recorded IC50?
-- reply 0.1 to 1 µM

-- ask Consider the compound shown here: CC(=O)N1CCN(c2ccc(Nc3nc(-c4ccc5cn[nH]c5c4)nc4cn[nH]c34)cc2)CC1 What is its recorded IC50?
-- reply < 0.01 µM

-- ask Consider the compound shown here: COc1cc(Nc2nc(-c3c(F)cccc3Cl)nc3cn[nH]c23)ccc1N1CCOCC1 What is its recorded IC50?
-- reply 0.01 to 0.1 µM

-- ask Consider the compound shown here: NS(=O)(=O)c1cccc(-c2nc(Nc3ccc4c(c3)NC(=O)CCC4)c3[nH]ncc3n2)c1 What is its recorded IC50?
-- reply 0.01 to 0.1 µM

* * *

Listing: pIC50 of selected molecules
system: SYK kinase (Homo sapiens, UniProt P43405)
pIC50: −log10 of the molar value.

[[record]]
molecule = "CN1CCN(C2CCN(c3ccc(Nc4nc(-c5ccccc5NS(C)(=O)=O)nc5cn[nH]c45)cc3)CC2)CC1"
endpoint_name = "pIC50"
readout_value = "7.00 to 8.00"


-- ask Query pIC50 on SYK kinase (Homo sapiens, UniProt P43405) for CC(=O)N1CCN(c2ccc(Nc3nc(C4CC4C)nc4cn[nH]c34)cc2)CC1 (centres unmarked)
-- reply 6.00 to 7.00

* * *

Listing: pIC50 of selected compounds
system: SYK kinase (Homo sapiens)
pIC50: −log10 of the molar value.

These recorded examples may help you get a feel for the data.
[[record]]
molecule_smiles = "COc1ccc(Nc2nc(-c3ccon3)nc3cn[nH]c23)cc1OC"
system = "SYK kinase (Homo sapiens)"
endpoint_name = "pIC50"
readout_value = "6.00 to 7.00"

[[record]]
molecule_smiles = "COCC(COC)n1cc(Nc2nc(-c3cccc(-c4cccnc4)c3)nc3cn[nH]c23)cn1"
system = "SYK kinase (Homo sapiens)"
endpoint_name = "pIC50"
readout_value = "6.00 to 7.00"

[[record]]
molecule_smiles = "CN1CCC(n2cc(Nc3nc(C4CC4)nc4cn[nH]c34)cn2)CC1"
system = "SYK kinase (Homo sapiens)"
endpoint_name = "pIC50"
readout_value = "7.00 to 8.00"

[[record]]
molecule_smiles = "COc1cc(Nc2nc(-c3cccc(NS(C)(=O)=O)c3)nc3cn[nH]c23)ccc1N1CCOCC1"
system = "SYK kinase (Homo sapiens)"
endpoint_name = "pIC50"
readout_value = "6.00 to 7.00"

[[record]]
molecule_smiles = "c1cc(-c2nc(Nc3cnn(C4CCOCC4)c3)c3[nH]ncc3n2)co1"
system = "SYK kinase (Homo sapiens)"
endpoint_name = "pIC50"
readout_value = "> 8.00"


-- ask Query pIC50 on SYK kinase (Homo sapiens) for COCCn1cc(Nc2nc(-c3ncco3)nc3cn[nH]c23)cn1
-- reply 6.00 to 7.00

-- ask Query pIC50 on SYK kinase (Homo sapiens) for CN1CCN(c2ccc(Nc3nc(-c4ccco4)nc4cn[nH]c34)cn2)CC1
-- reply 6.00 to 7.00

-- ask Query pIC50 on SYK kinase (Homo sapiens) for CN1C(=O)COc2ccc(Nc3nc(-c4ccc5cn[nH]c5c4)nc4cn[nH]c34)cc21
-- reply 6.00 to 7.00

-- ask Query pIC50 on SYK kinase (Homo sapiens) for CS(=O)(=O)Nc1cccc(-c2nc(Nc3cnn(C4CCOCC4)c3)c3[nH]ncc3n2)c1
-- reply 6.00 to 7.00

-- ask Query pIC50 on SYK kinase (Homo sapiens) for Fc1cc(Nc2nc(C3CC3)nc3cn[nH]c23)ccc1N1CCOCC1
-- reply 6.00 to 7.00

-- ask Query pIC50 on SYK kinase (Homo sapiens) for CC(C)(O)Cn1cc(Nc2nc(-c3ccc4cn[nH]c4c3)nc3cn[nH]c23)cn1
-- reply 7.00 to 8.00

-- ask Query pIC50 on SYK kinase (Homo sapiens) for c1nn(C2CCOCC2)cc1Nc1nc(-c2ccc3cn[nH]c3c2)nc2cn[nH]c12
-- reply > 8.00

* * *

system: SYK kinase (Homo sapiens)
endpoint.name: IC50

[[record]]
molecule = "OC1CCN(c2ccc(Nc3nc(-c4ccco4)nc4cn[nH]c34)cc2)CC1"
endpoint_name = "IC50"
readout_value = "10 to 100 nM"

[[record]]
molecule = "CC(C)(C)n1cc(Nc2nc(-c3ccco3)nc3cn[nH]c23)cn1"
endpoint_name = "IC50"
readout_value = "10 to 100 nM"

[[record]]
molecule = "COCC(COC)n1cc(Nc2nc(C3CCC3)nc3cn[nH]c23)cn1"
endpoint_name = "IC50"
readout_value = "100 to 1000 nM"

[[record]]
molecule = "CC(C)(C)n1cc(Nc2nc(-c3ncco3)nc3cn[nH]c23)cn1"
endpoint_name = "IC50"
readout_value = "100 to 1000 nM"

[[record]]
molecule = "CC1CC1c1nc(Nc2cnn(C3CCOCC3)c2)c2[nH]ncc2n1 (stereo not shown)"
endpoint_name = "IC50"
readout_value = "100 to 1000 nM"

[[record]]
molecule = "O=C1COc2ccc(Nc3nc(-c4ccc5cn[nH]c5c4)nc4cn[nH]c34)cc2N1"
endpoint_name = "IC50"
readout_value = "< 10 nM"


-- ask Consider the molecule shown here: COc1cc(Nc2nc([C@H]3C[C@@H]3c3ccccc3)nc3cn[nH]c23)ccc1N1CCOCC1 What is its recorded IC50?
-- reply 100 to 1000 nM

-- ask Consider the molecule shown here: OCCn1cc(Nc2nc(-c3nc4ccccc4o3)nc3cn[nH]c23)cn1 What is its recorded IC50?
-- reply 100 to 1000 nM

-- ask Consider the molecule shown here: N#CC1(n2cc(Nc3nc(-c4ccoc4)nc4cn[nH]c34)cn2)CCCCC1 What is its recorded IC50?
-- reply 100 to 1000 nM

-- ask Consider the molecule shown here: CCCc1nc(Nc2ccc(N3CCOCC3)cc2)c2[nH]ncc2n1 What is its recorded IC50?
-- reply 100 to 1000 nM

-- ask Consider the molecule shown here: OCCN1CCN(c2ccc(Nc3nc(-c4c(F)cccc4F)nc4cn[nH]c34)cc2)CC1 What is its recorded IC50?
-- reply 10 to 100 nM

-- ask Consider the molecule shown here: CC(C)n1ncc(Nc2nc(C3CCC3)nc3cn[nH]c23)c1Cl What is its recorded IC50?
-- reply 100 to 1000 nM

-- ask Consider the molecule shown here: c1nn(C2CCOCC2)cc1Nc1nc(C2C3CCCCC32)nc2cn[nH]c12 (stereo not shown) What is its recorded IC50?
-- reply 100 to 1000 nM

-- ask Consider the molecule shown here: CN(C)C(=O)Cn1cc(Nc2nc(-c3cccc(-c4cccnc4)c3)nc3cn[nH]c23)cn1 What is its recorded IC50?
-- reply 10 to 100 nM

-- ask Consider the molecule shown here: N#CCn1cc(Nc2nc(-c3ccoc3)nc3cn[nH]c23)cn1 What is its recorded IC50?
-- reply < 10 nM

-- ask Consider the molecule shown here: c1ccc(-n2cc(Nc3nc(-c4ccoc4)nc4cn[nH]c34)cn2)nc1 What is its recorded IC50?
-- reply 100 to 1000 nM

-- ask Consider the molecule shown here: CC(C)n1cc(Nc2nc(-c3cccs3)nc3cn[nH]c23)cn1 What is its recorded IC50?
-- reply 10 to 100 nM

-- ask Consider the molecule shown here: CC(C)n1cc(Nc2nc(-c3ccco3)nc3cn[nH]c23)cn1 What is its recorded IC50?
-- reply < 10 nM
